All figures here come from patent US20250179027A1.

pIC50: −log10 of the molar value.
Dear all, this message contains pIC50 results, target or system BTK kinase (Homo sapiens, UniProt Q06187).

COc1ccc(F)cc1C(=O)NCc1ccc(-c2nn(C3CCC(O)C3)c3ncnc(N)c23)cc1 (single isomer, unassigned) [Example 34] | ≥ 8.00
COc1ccc(F)cc1C(=O)NCc1ccc(-c2nn([C@H]3CC[C@@H](O)CC3)c3ncnc(N)c23)cc1 | ≥ 8.00
COc1ccc(F)cc1C(=O)NCc1ccc(-c2nn(C3CCCC(O)C3)c3ncnc(N)c23)cc1 (single isomer, unassigned) [Example 5] | 7.30 to 8.00

Hi! Can you tell me pIC50 for each of these compounds?
1. COc1ccc(F)cc1C(=O)NCc1ccc(-c2nn(C3CCC(O)C3)c3ncnc(N)c23)cc1 (single isomer, unassigned) [Example 31]
2. COc1ccc(F)cc1C(=O)NCc1ccc(-c2cc(C3CCC(CO)OC3)n3ncnc(N)c23)cc1 (single isomer, unassigned) [Example 60]
3. COc1ccc(F)cc1C(=O)NCc1ccc(-c2nn(C3CCCC(O)C3)c3ncnc(N)c23)cc1 (single isomer, unassigned) [Example 6]

["≥ 8.00", "≥ 8.00", "≥ 8.00"]

* * *

molecular target: phosphorylated BTK Y223 in NIH/3T3 BTK C481S cells (Homo sapiens, UniProt Q06187, C481S); assay: Phosphor-BTK(Y223) assay, NIH/3T3 BTK C481S cells; details: phosphorylated BTK Y223, NIH/3T3 BTK C481S cells; read-out: NIH/3T3 BTK-C481S pBTK IC50
Sequence (Q06187 whole entry C481S): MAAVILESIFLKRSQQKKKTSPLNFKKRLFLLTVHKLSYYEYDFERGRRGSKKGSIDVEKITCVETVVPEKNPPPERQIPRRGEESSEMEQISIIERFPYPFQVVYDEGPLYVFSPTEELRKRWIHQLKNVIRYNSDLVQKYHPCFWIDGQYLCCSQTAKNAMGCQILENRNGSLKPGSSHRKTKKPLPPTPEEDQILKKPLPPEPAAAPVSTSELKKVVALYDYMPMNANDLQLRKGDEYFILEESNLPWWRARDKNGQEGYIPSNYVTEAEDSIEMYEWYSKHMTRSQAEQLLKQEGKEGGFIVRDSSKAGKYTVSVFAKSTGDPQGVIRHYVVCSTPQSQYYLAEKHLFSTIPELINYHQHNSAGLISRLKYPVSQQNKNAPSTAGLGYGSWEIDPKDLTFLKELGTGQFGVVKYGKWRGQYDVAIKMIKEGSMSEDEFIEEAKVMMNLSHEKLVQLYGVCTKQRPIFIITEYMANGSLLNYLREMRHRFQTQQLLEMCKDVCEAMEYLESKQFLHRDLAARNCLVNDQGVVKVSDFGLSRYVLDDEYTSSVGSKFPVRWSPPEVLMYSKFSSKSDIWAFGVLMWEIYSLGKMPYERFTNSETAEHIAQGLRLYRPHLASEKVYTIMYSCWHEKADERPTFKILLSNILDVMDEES
What IC50 was measured for each of the following?

Look over these answered cases.
COc1ccc(F)cc1C(=O)NCc1ccc(-c2nn([C@@H]3C=C[C@@H](O)C3)c3ncnc(N)c23)cc1 (single isomer, unassigned) [Example 38] | 25 to 50 nM
COc1ccc(F)cc1C(=O)NCc1ccc(-c2nn(C3CCCC(O)C3)c3ncnc(N)c23)cc1 (centres unmarked) [Example 4] | 25 to 50 nM
COc1ccc(F)cc1C(=O)NCc1ccc(-c2nn(C3CCC(O)CC3)c3ncnc(N)c23)cc1 (centres unmarked) | ≤ 25 nM
COc1ccc(F)cc1C(=O)NCc1ccc(-c2nn(C3CCCC(O)C3)c(N)c2C(N)=O)cc1 (single isomer, unassigned) [Example 3] | 100 to 500 nM
COc1ccc(F)cc1C(=O)NCc1ccc(-c2nn([C@H]3CC[C@H](O)CC3)c3c(=O)[nH]nc(N)c23)cc1 | 50 to 100 nM

Hi! Can you tell me IC50 for each of these molecules?
1. COc1ccc(F)cc1C(=O)NCc1ccc(-c2nn(C3CCCC(C)(O)C3)c3ncnc(N)c23)cc1 (single isomer, unassigned) [Example 26]
2. COc1ccc(F)cc1C(=O)NCc1ccc(-c2nn(C3CCCC(O)C3)c(N)c2C(N)=O)cc1 (single isomer, unassigned) [Example 2]
3. COc1ccc(F)cc1C(=O)NCc1ccc(-c2nn(C3CCC(CO)OC3)c(N)c2C(N)=O)cc1 (single isomer, unassigned) [Example 13]
4. COc1ccc(F)cc1C(=O)NCc1ccc(-c2nn(C3CCCC(C)(O)C3)c3ncnc(N)c23)cc1 (single isomer, unassigned) [Example 27]
5. COc1ccc(F)cc1C(=O)NCc1ccc(-c2nn(C3CCC(CO)OC3)c(N)c2C(N)=O)cc1 (centres unmarked) [Example 12]
6. COc1ccc(F)cc1C(=O)NCc1ccc(-c2nn(C3CCC(CO)OC3)c3ncnc(N)c23)cc1 (centres unmarked) [Example 15]
7. COc1ccc(F)cc1C(=O)NCc1ccc(-c2cc(C3CCC(CO)OC3)n3ncnc(N)c23)cc1 (centres unmarked) [Example 58]
8. COc1ccc(F)cc1C(=O)NCc1ccc(-n2cc(C3CCC(CO)OC3)c3ncnc(N)c32)cc1 (single isomer, unassigned) [Example 51]

50 to 100 nM
50 to 100 nM
100 to 500 nM
25 to 50 nM
100 to 500 nM
50 to 100 nM
25 to 50 nM
50 to 100 nM

Hi! Can you tell me IC50 for each of these molecules?
1. COc1ccc(F)cc1C(=O)NCc1ccc(-c2nn(C3CCC(CO)OC3)c(N)c2C(N)=O)cc1 (single isomer, unassigned) [Example 14]
2. COc1ccc(F)cc1C(=O)NCc1ccc(-c2cc(C3CCC(CO)OC3)n3ncnc(N)c23)cc1 (single isomer, unassigned) [Example 59]
3. COc1ccc(F)cc1C(=O)NCc1ccc(-c2nn(C3CCCC(C)(O)C3)c3ncnc(N)c23)cc1 (single isomer, unassigned) [Example 28]
4. COc1ccc(F)cc1C(=O)NCc1ccc(-c2nn(C3CCCC(C)(O)C3)c3ncnc(N)c23)cc1 (single isomer, unassigned) [Example 23]

1. 100 to 500 nM
2. 50 to 100 nM
3. 25 to 50 nM
4. 25 to 50 nM

Hi! Can you tell me IC50 for each of these molecules?
1. COc1ccc(F)cc1C(=O)NCc1ccc(-c2cc(C3CCC(CO)OC3)n3ncnc(N)c23)cc1 (single isomer, unassigned) [Example 62]
2. COc1ccc(F)cc1C(=O)NCc1ccc(-c2nn(C3CCCCC(O)C3)c3ncnc(N)c23)cc1 (centres unmarked)
3. COc1ccc(F)cc1C(=O)NCc1ccc(-c2nn(C3CCCC(O)C3)c3ncnc(N)c23)cc1 (single isomer, unassigned) [Example 5]
4. COc1ccc(F)cc1C(=O)NCc1ccc(-c2nn(C3CCC(O)C3)c3ncnc(N)c23)cc1 (centres unmarked) [Example 32]
5. COc1ccc(F)cc1C(=O)NCc1ccc(-c2nn(C3CCCC(O)C3)c3c(=O)[nH]nc(N)c23)cc1 (centres unmarked)

25 to 50 nM
50 to 100 nM
≤ 25 nM
≤ 25 nM
100 to 500 nM

Hi! Can you tell me IC50 for each of these molecules?
1. COc1ccc(F)cc1C(=O)NCc1ccc(-c2nc(C3CCCC(O)C3)n3ccnc(N)c23)cc1 (centres unmarked) [Example 20]
2. COc1ccc(F)cc1C(=O)NCc1ccc(-c2nn(C3CCC(CO)OC3)c3ncnc(N)c23)cc1 (single isomer, unassigned) [Example 16]
3. COc1ccc(F)cc1C(=O)NCc1ccc(-c2nn(C3CCCC(C)(O)C3)c3ncnc(N)c23)cc1 (single isomer, unassigned) [Example 24]
4. COc1ccc(F)cc1C(=O)NCc1ccc(-c2nc(C3CCCC(O)C3)n3ccnc(N)c23)cc1 (single isomer, unassigned) [Example 22]

["≤ 25 nM", "100 to 500 nM", "25 to 50 nM", "≤ 25 nM"]

* * *

target: phosphorylated BTK Y223 in NIH/3T3 BTK C481S cells (Homo sapiens, UniProt Q06187, C481S); assay: Phosphor-BTK(Y223) assay, NIH/3T3 BTK C481S cells; conditions: phosphorylated BTK Y223, NIH/3T3 BTK C481S cells; read-out: NIH/3T3 BTK-C481S pBTK IC50
observable: IC50

Look over these answered cases.
COc1ccc(F)cc1C(=O)NCc1ccc(-c2nn(C3CCCC(O)C3)c3ncnc(N)c23)cc1 (single isomer, unassigned) [Example 7] | 25 to 50 nM
COc1ccc(F)cc1C(=O)NCc1ccc(-c2nc(C3CCCC(O)C3)n3ccnc(N)c23)cc1 (single isomer, unassigned) [Example 21] | 50 to 100 nM
COc1ccc(F)cc1C(=O)NCc1ccc(-c2nn([C@@H]3C=C[C@@H](O)C3)c3ncnc(N)c23)cc1 (single isomer, unassigned) [Example 49] | 25 to 50 nM

Hi! Can you tell me IC50 for each of these compounds?
1. COc1ccc(F)cc1C(=O)NCc1ccc(-c2nn([C@H]3CC[C@H](CO)CC3)c3ncnc(N)c23)cc1 [Example 56]
2. COc1ccc(F)cc1C(=O)NCc1ccc(-c2nn(C3CCCC(O)C3)c3ncnc(N)c23)cc1 (single isomer, unassigned) [Example 6]
3. COc1ccc(F)cc1C(=O)NCc1ccc(-c2nn([C@@H]3C=C[C@@H](O)C3)c3ncnc(N)c23)cc1 (single isomer, unassigned) [Example 50]
4. COc1ccc(F)cc1C(=O)NCc1ccc(-c2nn([C@@H]3C=C[C@@H](O)C3)c3ncnc(N)c23)cc1 (single isomer, unassigned) [Example 37]
5. COc1ccc(F)cc1C(=O)NCc1ccc(-c2nn(C3CCCC(O)C3)c3ncnc(N)c23)cc1 (single isomer, unassigned) [Example 8]
6. COc1ccc(F)cc1C(=O)NCc1ccc(-c2nn(C3CCC(CO)OC3)c3ncnc(N)c23)cc1 (single isomer, unassigned) [Example 17]
7. COc1ccc(F)cc1C(=O)NCc1ccc(-c2nn(C3CCC(CO)OC3)c3ncnc(N)c23)cc1 (single isomer, unassigned) [Example 18]
8. COc1ccc(F)cc1C(=O)NCc1ccc(-c2nn([C@H]3CC[C@@H](CO)CC3)c3ncnc(N)c23)cc1 [Example 55]

1. ≤ 25 nM
2. ≤ 25 nM
3. 25 to 50 nM
4. 50 to 100 nM
5. 50 to 100 nM
6. 100 to 500 nM
7. ≤ 25 nM
8. ≤ 25 nM

Hi! Can you tell me IC50 for each of these compounds?
1. COc1ccc(F)cc1C(=O)NCc1ccc(-c2nn([C@H]3CC[C@@H](O)CC3)c3c(=O)[nH]nc(N)c23)cc1 [Example 39]
2. COc1ccc(F)cc1C(=O)NCc1ccc(-c2nn(C3CCC(CO)OC3)c3c(=O)[nH]nc(N)c23)cc1 (stereo not shown) [Example 43]

100 to 500 nM
100 to 500 nM
